Attribution: the supplement of paper PMC10567573

B1: INTS4 (parent)
chain: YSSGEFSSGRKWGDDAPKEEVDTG

Variants of: B1
Assay: protein stability index of a GFP-peptide fusion (GPS, HEK-293T) (PSI 1-6); higher = more stable;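 further: lentivirally expressed fusions sorted by FACS into six bins by GFP to DsRed ratio, PSI derived from sequencing read proportions per bin multiplied by bin number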
Conditions: c terminus: a fixed tail appended
MEASURED PROPERTY: protein stability index

// for each variant in input: emit protein stability index
1. G13S
2. G4K
3. Y1R
4. S3D
5. K18M
6. Y1M
7. Y1A

[2.94, 3.31, 5.71, 5.15, 2.82, 5.39, 4.93]

// for each variant in input: emit protein stability index
1. S8F
2. T23K
3. G4P
4. G13K
5. D14A

1. 2.48
2. 2.46
3. 3.11
4. 2.5
5. 2.54
